# System: Fibroblast
# assay-protocol: Multiplex assay against human fibroblast
# Format: toxicity, cell-based
# study-conditions: 24 h, 1 µM, compound concentration 1 uM, replicate 2
# key: entry, value: Population Hoechst High Intensity Objects (%)
property-measured: Population Hoechst High Intensity Objects (%)

compound	target-under-test	observed-result
CC(C)(C)c1cc(NC(=O)Nc2ccc(-c3cn4c(n3)sc3cc(OCCN5CCOCC5)ccc34)cc2)no1	Fibroblast	3%
Cc1noc(-c2ccc(-c3ccc(CC(=O)O)cc3)cc2)c1NC(=O)O[C@H](C)c1ccccc1Cl	Fibroblast	2%
CCCCCC(O)/C=C/[C@H]1C(=O)CC(O)C1C/C=C\CCCC(=O)O (some centres undefined)	Fibroblast	1%
COc1ccccc1N1CCN(C[C@@H](C(=O)NC(C)(C)C)c2ccccc2)CC1.Cl.Cl	Fibroblast	3%
NCCc1cn(S(=O)(=O)c2c(Cl)nc3sccn23)c2ccccc12.O=C(O)C(=O)O	Fibroblast	4%
Cc1cnc(-c2cc(N3CCN(C(=O)CCS(C)(=O)=O)CC3)ncc2Cl)c(C)c1	Fibroblast	10%
N#Cc1c(Oc2cccc(OS(=O)(=O)CCCC(F)(F)F)c2)cccc1C(F)(F)F	Fibroblast	3%
Br.CS(=O)(=O)Nc1c(O)ccc2c1CCCC2C1=NCCN1 (centres undefined)	Fibroblast	7%
O=C(CCCc1ccccc1)Nc1nc2ccccc2c(=O)s1	Fibroblast	5%
CN[C@@H](C)C(=O)N[C@H](C(=O)N1CCC[C@H]1C(=O)Nc1snnc1-c1ccccc1)C1CCCCC1	Fibroblast	9%
CCCOc1ccc2[nH]cc(C3=CCNCC3)c2n1.Cl	Fibroblast	0%
O=C1[C@H](Cc2ccc(O)cc2)N2C(=O)CCN(C(=O)NCc3ccccc3)[C@H]2CN1Cc1cccc2ccccc12	Fibroblast	2%
Cc1cccc(NC(=O)CN2CCC(c3ccccn3)CC2)c1.Cl.Cl	Fibroblast	4%
Cl.N=C(N)NC(=O)Cc1c(Cl)cccc1Cl [GUANFACINE HYDROCHLORIDE]	Fibroblast	6%
N#Cc1cc(F)cc(-c2nc(-c3ccc(F)cn3)no2)c1	Fibroblast	7%
C[C@H](N)COC(=O)[C@@H](CCCCN)NC(=O)Cc1c(-c2ccc3ccccc3c2)[nH]c2c1ccc1ccccc12	Fibroblast	7%
CC(/C=C1\SC(=S)N(CCCC(=O)Nc2ccc(C(=O)O)c(O)c2)C1=O)=C\c1ccccc1	Fibroblast	2%
CCCCC1=NC2(CCCC2)C(=O)N1Cc1ccc(-c2ccccc2-c2nnn[nH]2)cc1	Fibroblast	3%
CCc1cc2cc(NS(=O)(=O)c3ccc(C#N)cc3)ccc2n(CC)c1=O	Fibroblast	6%

* * *

# System: Fibroblast
# assay-protocol: Multiplex assay against human fibroblast
# Format: toxicity, cell-based
# study-conditions: 12 h, 10 µM, compound concentration 10 uM, replicate 2
# key: entry, value: Population Mitotic Cells (%)
property-measured: Population Mitotic Cells (%)

compound	property-measured	endpoint-unit	observed-result
CC(C)COc1ccc(CNC(=O)N(Cc2ccc(F)cc2)C2CCN(C)CC2)cc1	Population Mitotic Cells (%)	%	48
CN1CCN(c2cc(-c3ccccc3)nc(N)n2)CC1	Population Mitotic Cells (%)	%	64
CCCCC1=NC2(CCCC2)C(=O)N1Cc1ccc(-c2ccccc2-c2nnn[nH]2)cc1	Population Mitotic Cells (%)	%	54
CC(C)(C)c1cc(NC(=O)Nc2ccc(-c3cn4c(n3)sc3cc(OCCN5CCOCC5)ccc34)cc2)no1	Population Mitotic Cells (%)	%	51
C[C@H](N)COC(=O)[C@@H](CCCCN)NC(=O)Cc1c(-c2ccc3ccccc3c2)[nH]c2c1ccc1ccccc12	Population Mitotic Cells (%)	%	37
Cc1onc(-c2ccccc2Cl)c1C(=O)N(C)c1ccc(Cl)cc1	Population Mitotic Cells (%)	%	62
Br.CS(=O)(=O)Nc1c(O)ccc2c1CCCC2C1=NCCN1 (configuration not stated)	Population Mitotic Cells (%)	%	66
Cl.N=C(N)NC(=O)Cc1c(Cl)cccc1Cl [GUANFACINE HYDROCHLORIDE]	Population Mitotic Cells (%)	%	64
O=C(NCCN1CCC(n2c(=O)[nH]c3cc(Cl)ccc32)CC1)c1ccc(F)cc1 [HALOPEMIDE]	Population Mitotic Cells (%)	%	68
Cc1sc2c(c1C)C(c1ccc(Cl)cc1)=N[C@@H](CC(=O)NCCCCCCCCNC(=O)COc1cccc3c1C(=O)N(C1CCC(=O)NC1=O)C3=O)c1nnc(C)n1-2 (some centres not stated)	Population Mitotic Cells (%)	%	55
CCc1cc2cc(NS(=O)(=O)c3ccc(C#N)cc3)ccc2n(CC)c1=O	Population Mitotic Cells (%)	%	81
NCCc1cn(S(=O)(=O)c2c(Cl)nc3sccn23)c2ccccc12.O=C(O)C(=O)O	Population Mitotic Cells (%)	%	42

* * *

# key: entry, value: Population Apoptotic (%)
# System: HEK-293T
# assay-protocol: Multiplex assay against HEK293T
# Type: toxicity, cell-based
# study-conditions: human, 24 h, 1 µM, compound concentration 1 uM, replicate 2

compound	endpoint-unit	Population Apoptotic (%)
CC(/C=C1\SC(=S)N(CCCC(=O)Nc2ccc(C(=O)O)c(O)c2)C1=O)=C\c1ccccc1	%	31
COC[C@@H](c1ccc(C(F)(F)F)cc1)N1CCN(C2(C)CCN(C(=O)c3c(C)ncnc3C)CC2)C[C@@H]1C.O=C(O)/C=C\C(=O)O [VICRIVIROC MALEATE]	%	31
CN(C)C(=O)Cn1cc(-c2ccc(-c3cncc4ccccc34)cc2)cn1	%	40
COc1ccccc1N1CCN(C[C@@H](C(=O)NC(C)(C)C)c2ccccc2)CC1.Cl.Cl	%	34
NCCc1cn(S(=O)(=O)c2c(Cl)nc3sccn23)c2ccccc12.O=C(O)C(=O)O	%	41
Cc1noc(-c2ccc(-c3ccc(CC(=O)O)cc3)cc2)c1NC(=O)O[C@H](C)c1ccccc1Cl	%	40
CCCCCC(O)/C=C/[C@H]1C(=O)CC(O)C1C/C=C\CCCC(=O)O (some centres undefined)	%	44
CC(C)c1noc(N2CCC(COc3ccc(-c4ccc(S(C)(=O)=O)cc4)nc3)CC2)n1 [GSK-1292263]	%	25
CN[C@@H](C)C(=O)N[C@H](C(=O)N1CCC[C@H]1C(=O)Nc1snnc1-c1ccccc1)C1CCCCC1 [GDC-0152]	%	38

* * *

# System: Fibroblast
# assay-protocol: Multiplex assay against human fibroblast
# Assay type: toxicity, cell-based
# study-conditions: 48 h, 10 µM, compound concentration 10 uM, replicate 1
# key: entry, value: Population Apoptotic (%)
property-measured: Population Apoptotic (%)

compound	observed-result
Cl.N=C(N)NC(=O)Cc1c(Cl)cccc1Cl [GUANFACINE HYDROCHLORIDE]	66
Br.CS(=O)(=O)Nc1c(O)ccc2c1CCCC2C1=NCCN1 (stereo not drawn)	61
NCCc1cn(S(=O)(=O)c2c(Cl)nc3sccn23)c2ccccc12.O=C(O)C(=O)O	85

* * *

# System: HEK-293T
# assay-protocol: Multiplex assay against HEK293T
# Format: toxicity, cell-based
# study-conditions: human, 48 h, 10 µM, compound concentration 10 uM, replicate 1

compound-structure-string	Population Apoptotic (%)
CCCOc1ccc2[nH]cc(C3=CCNCC3)c2n1.Cl	35
CN1CCN(c2cc(-c3ccccc3)nc(N)n2)CC1	16
CC(C)(C)c1cc(NC(=O)Nc2ccc(-c3cn4c(n3)sc3cc(OCCN5CCOCC5)ccc34)cc2)no1	57
Cc1c(CC(=O)O)c2cccnc2n1Cc1ccc(S(C)(=O)=O)cc1C(F)(F)F	29
Cc1cccc(NC(=O)CN2CCC(c3ccccn3)CC2)c1.Cl.Cl	46
Cc1onc(-c2ccccc2Cl)c1C(=O)N(C)c1ccc(Cl)cc1	33
O=C1[C@H](Cc2ccc(O)cc2)N2C(=O)CCN(C(=O)NCc3ccccc3)[C@H]2CN1Cc1cccc2ccccc12	71
C[C@H](N)COC(=O)[C@@H](CCCCN)NC(=O)Cc1c(-c2ccc3ccccc3c2)[nH]c2c1ccc1ccccc12	27
CCCCC(=O)N(Cc1ccc(-c2ccccc2-c2nnn[nH]2)cc1)[C@H](C(=O)O)C(C)C	14
Cc1noc(-c2ccc(-c3ccc(CC(=O)O)cc3)cc2)c1NC(=O)O[C@H](C)c1ccccc1Cl	38
CCCCC1=NC2(CCCC2)C(=O)N1Cc1ccc(-c2ccccc2-c2nnn[nH]2)cc1	25
CC(C)COc1ccc(CNC(=O)N(Cc2ccc(F)cc2)C2CCN(C)CC2)cc1	75
O=C(CCCc1ccccc1)Nc1nc2ccccc2c(=O)s1	22

* * *

# System: U2OS
# assay-protocol: Multiplex assay against U2OS
# Format: toxicity, cell-based
# study-conditions: human, 12 h, 10 µM, compound concentration 10 uM, replicate 2
# key: entry, value: Population Pyknosed Nuclei (%)
property-measured: Population Pyknosed Nuclei (%)

compound	observed-result
COC[C@@H](c1ccc(C(F)(F)F)cc1)N1CCN(C2(C)CCN(C(=O)c3c(C)ncnc3C)CC2)C[C@@H]1C.O=C(O)/C=C\C(=O)O [VICRIVIROC MALEATE]	6%
CCCOc1ccc2[nH]cc(C3=CCNCC3)c2n1.Cl	7%
Br.CS(=O)(=O)Nc1c(O)ccc2c1CCCC2C1=NCCN1 (stereo not given)	2%
Cl.NCCc1ccc(O)c(O)c1 [DOPAMINE HYDROCHLORIDE]	4%
Cc1onc(-c2ccccc2Cl)c1C(=O)N(C)c1ccc(Cl)cc1	19%

Sourced from ChEMBL document CHEMBL5058577
